Measured values drawn from ChEMBL document CHEMBL3988442 for this set.

System: Wolbachia pipientis
Assay: Anti-Wolbachia Cell-Based Screen
Format: functional
Set-up: scale not given: in the data most compounds retested in dose-response had high values
Settings: 5 µM
The campaign covered roughly 48,000 compounds. About 13,000 (27%) showed an effect of 50% or more. The list shows a part of the results.
readout: Percent Effect (%)
Respond numerically; units are % and should not be typed.

Examples with their reported Percent Effect follow.
> print(dat)
                                   compound       assayed.target         readout  unit.abbrev  measured
1         Cn1cc(C(=O)N2CCC(Cc3nccs3)CC2)cn1  Wolbachia pipientis  Percent Effect            %    0.6928
2  Cc1cc(C(=O)N2CCCC2c2nc(O)cc(C(C)C)n2)on1 (stereo unspecified)  Wolbachia pipientis  Percent Effect            %     118.7

Entry under review: CC(C)c1cc(C(=O)N2CCCC2c2nc(-c3ccccc3)no2)[nH]n1 (stereo unspecified) . Reported Percent Effect? -1.356

Entry under review: `O=C(c1cccnc1)N1CCN(c2ccnc3ccsc23)CC1` . Reported Percent Effect? -5.057

Entry under review: CCCn1cc(C(=O)N2CCCC(Cc3nccs3)C2)cn1 (stereo unspecified) . Reported Percent Effect? 95.18

Entry under review: O=C(c1cccnc1)N1CCCC(Cc2nccs2)C1 (stereo unspecified) . Reported Percent Effect? 104.8

Entry under review: O=C(c1cnco1)N1CCCC(Cc2nccs2)C1 (stereo unspecified) . Reported Percent Effect? -3.557

Entry under review: O=C(C1CN(CC2CCOCC2)CC12CCOCC2)N1CCCC1.O=C(O)C(F)(F)F (stereo unspecified) . Reported Percent Effect? 0.226

Entry under review: `Cc1ncc(C(=O)N2CC[C@@]3(O)CCN(C4CCCCC4)C[C@H]3C2)cn1` . Reported Percent Effect? 8.568

Entry under review: Cc1cc(C(=O)N2CCCC2c2nc(C)cc(O)n2)on1 (stereo unspecified) . Reported Percent Effect? 93.31

Entry under review: Cc1ncc(C(=O)N2CCCC(Cc3nccs3)C2)cn1 (stereo unspecified) . Reported Percent Effect? 96.26
